apparent KD of MS2 coat protein values by entry
tested on: MS2 coat protein; assay: apparent KD of MS2 coat protein; designed switch direction (-1 OFF switch, 1 ON switch): -1; higher = weaker reporter binding; details: input ligand: microRNA oligo, concentration not stated
experimental endpoint: apparent KD of MS2 coat protein (nM)

construct sequence	numeric value
GUCAGCUCGUCAGGAUAUACAUGCGUGCUUCGGCACGUAUGAUAGAUCACAUGAGGAUCACCCAUGUAGAAGGGACGAGCUGAU [ENG2/4-B2] (Eterna round: R96, puzzle: Exclusion NG 2)	10
UACAUGAGGAUCACCCAUGUUUUGUCGUGUAUGGUAUUUAUCUAGGAUAUCAAUUGGUUUAUUUAUGAGAAGGAGAAUAUUAAU [JMF's solution 57] (Eterna round: R96, puzzle: Exclusion NG 3)	31.6
AAGAGGAUUAUAGGAUAUGAAGCUAAAACGGCGUUAGAAGGGUAUACAGAGUUACAUGAGGAUCACCCAUGUUGUGAUUUCUAA [AK ExNG1-V2-4.3] (Eterna round: R96, puzzle: Exclusion NG 1)	36.9
UUUAUAUAUGAAGGAUAUACUUAACAUGAGGAUCACCCAUGUGGUGUUGUGAGUGAGUGAGUUUAGUAGAAGGUCAAUGAUUUU [JMF's solution 70] (Eterna round: R96, puzzle: Exclusion NG 2)	306
GCUGCGCGCUGUCGGGCGUCUGGUCUUGGAGGGAUAGACACAUGAGGAUCACCCAUGUUUCGGGUGUUCUUUCUAUA [JR_Sensorv2_tov2_Sub1512] (Eterna round: R96, puzzle: Sensor v2, turn-off variant 2)	118

---

test system: MS2 coat protein; assay: apparent KD of MS2 coat protein; designed switch direction (-1 OFF switch, 1 ON switch): -1; higher = weaker reporter binding; settings: input ligand: none
Categorized via apparent KD of MS2 coat protein: low end (below 30 nM), middle (30 nM to below 100 nM), high end (100 nM or more)

construct sequence	discrete label
ACAUGUCAUCGAGGAUAUUGGACACAUGAGGAUCACCCAUGUACUCGGAUGCUCUAGCAUGAGUUCGAGAAGGCGAUGUACAUU [Ex NG2 #79] (Eterna round: R96, puzzle: Exclusion NG 2)	high end
AACCUAAGGCAAAGCUUUAGGUGUACAUGAGGAUCACCCAUGUAGGAUAUGGUAGGCAAAGCUUACCAGAAGGACAUUAUGAUA [Mat - Exclusion NG 3 - Mod of JL - D53] (Eterna round: R96, puzzle: Exclusion NG 3)	middle
UGAUCAGACCGAGGAUAUACAUGGAGGACCCACGUGAGUGGGUCCACUACAUGAGGAUCACCCAUGUAGAAGGCGGUCUGAUCU [JL ENG2 1.91] (Eterna round: R96, puzzle: Exclusion NG 2)	high end
UUUAGUUUAGGAUAUGUAGAUUUUAACAUGAGGAUCACCCAUGUAGAUCCUGAAUUAACUACAGAAGGAAACAUUU [Mod of Brourd 13 - Jieux - Exclusion 5] (Eterna round: R97, puzzle: Exclusion 5)	high end
GACAGGGCAGGAUAUCGAAUUCCUCACAUGAGGAUCACCCAUGUUCAGUCGAAAGACUGACGAGAAGGGCCGUGUC [Omei Ex5 E1] (Eterna round: R97, puzzle: Exclusion 5)	high end
AUUAUACAUGUAGGAUAUCUGCACGUGUAGUGCAGAGAAGGACAUGAGGAUCACCCAUGUAGAUCAAUAAUAAUUAAUUUAAUU [ENG1/6-B3] (Eterna round: R96, puzzle: Exclusion NG 1)	high end
GUAUGUGCGAGAGGAUAUCGUGUACAAAGUACACGAGAAGGCUUCACAUGAGGAUCACCCAUGUACCGAGGUGAAACACCUUGA [Omei Exc(NG)1 Bv8] (Eterna round: R96, puzzle: Exclusion NG 1)	high end
GCAGCGUAGUCUAAAUAAGACAUACAUGAGGAUCACCCAUGUCAGGAUAUGGUCUGGAUUACAGGCCAGAAGGGACAAAGCUGC [Eli exng3 - 002] (Eterna round: R96, puzzle: Exclusion NG 3)	low end
GUCACAUGGGUAUAGGAUCACAUGAGGAUCACCCAUGUGACUAACAAGCUUUUUGCUCGUCUUAUGUCUAUGUGAAU [Stov1/18-A2] (Eterna round: R97, puzzle: Sensor, turn-off variant 1)	middle
GCAGCAAAAUUCCAUAAAACCACAUGAGGAUCACCCAUGUCUCAGGAUAUGGUCUGGAUUACAGGCCAGAAGGGAGAAAGCUGC [Eli exng3 - 058] (Eterna round: R96, puzzle: Exclusion NG 3)	low end
UUAACCAGAGGAUAUGCGAAUAAAUAAAACUUUUUUUUUUAACAUGAGGAUCACCCAUGUAGAAGGCUGCAAUU [Ex2 #31] (Eterna round: R97, puzzle: Exclusion 2)	middle
CUGCUCCGUGUAGGAUAUGCGCGCACCCAACGCGCAGAAGGACAUGAGGAUCACCCAUGUAUGUUAUUAUCACGUGAGGCGCAG [Design 34] (Eterna round: R96, puzzle: Exclusion NG 1)	low end
ACUGACAUGAGGAUCACCCAUGUAGAUGUGUUCGCAAGCCUCUAGGAUAUAUCUAACCUACCCGGAUAGAAGGAGAGGUUCCCU [Eternabot solution 9] (Eterna round: R96, puzzle: Exclusion NG 3)	middle
GGAUAUAGGCGAGGAUAUACGCACCACUAACUAGUAGAAGGCGCACAUGAGGAUCACCCAUGUGAUUUCUCAAUAUGAUACACG [Prohibition 71 - Jieux - Exclusion NG 1] (Eterna round: R96, puzzle: Exclusion NG 1)	high end
AUACUUGCGAAGGAUAUGUAUCAAAGGAACGAAACAGAAGGUUGAACAUGAGGAUCACCCAUGUGUUCCUCGGA [Eternabot (Original) Solution 40] (Eterna round: R97, puzzle: Exclusion 6)	high end
UAAGAUUACCGAGGAUAUGGUGGUUUCUAUUAACCAGAAGGCGGACUCAACAUGAGGAUCACCCAUGUAUAAAGGGUAUUAGAU [Ex NG1 #8] (Eterna round: R96, puzzle: Exclusion NG 1)	high end
